system: Klebsiella oxytoca; assay: Antibacterial activity against Klebsiella oxytoca CIP 7932 after 48 hrs by microtiter broth dilution method; assay type: functional; conditions: CIP 7932, 48 h
OBSERVATION TYPE: MIC

smiles_representation=CC(C)C[C@@H]1NC(=O)CN(Cc2cccc3ccccc23)NC(=O)[C@H](CCCNC(=N)N)NC(=O)CN(CCCNC(=N)N)NC(=O)[C@H](CC(C)C)NC1=O recorded_result="> 100 µM"
smiles_representation=CC(C)C[C@@H]1NC(=O)CN(Cc2ccc3ccccc3c2)NC(=O)[C@H](CCCCN)NC(=O)CN(CCCCN)NC(=O)CN(Cc2ccc3ccccc3c2)NC1=O recorded_result="> 100 µM"
smiles_representation=CC(C)C[C@@H]1NC(=O)CN(Cc2ccc(-c3ccccc3)cc2)NC(=O)[C@H](CC(C)C)NC(=O)CN(Cc2ccc(-c3ccccc3)cc2)NC(=O)[C@H](CCCCN)NC(=O)CN(CCCCN)NC1=O recorded_result="25 µM"
smiles_representation=CC(C)CN1CC(=O)N[C@@H](Cc2c[nH]c3ccccc23)C(=O)NN(CC(C)C)CC(=O)N[C@@H](CCCCN)C(=O)NN(CCCCN)CC(=O)N[C@@H](Cc2c[nH]c3ccccc23)C(=O)N1 recorded_result="> 100 µM"
smiles_representation=CC(C)CN1CC(=O)N[C@@H](Cc2c[nH]c3ccccc23)C(=O)NN(CCCCN)CC(=O)N[C@@H](CCCCN)C(=O)NN(CCCCN)CC(=O)N[C@@H](Cc2c[nH]c3ccccc23)C(=O)N1 recorded_result="> 100 µM"
smiles_representation=CC(C)C[C@@H]1NC(=O)CN(Cc2ccc(-c3ccccc3)cc2)NC(=O)[C@H](CCCCN)NC(=O)CN(CCCCN)NC(=O)CN(Cc2ccc(-c3ccccc3)cc2)NC1=O recorded_result="50 µM"
smiles_representation=N=C(N)NCCC[C@@H]1NC(=O)CN(CCCCN)NC(=O)CN(Cc2ccc3ccccc3c2)NC(=O)[C@H](Cc2ccccc2)NC(=O)CN(Cc2ccc3ccccc3c2)NC1=O recorded_result="> 100 µM"
